All values here come from ChEMBL document CHEMBL5329147.

MIC overview
tested on: Staphylococcus aureus; experiment: Antibacterial activity against methicillin resistant Staphylococcus aureus NRS 129 assessed as bacterial growth inhibition incubated for 18 to 24 hrs by broth microdilution method; type: functional; conditions: time 18-24 hrs
A number alone suffices; assume µg/mL.

Below: 4 compounds and their reported MIC.
                                   compound  measured_value
0  CCN1C(=O)[C@@]2(CN(C)C3(c4cc(Cl)ccc4-n4c3nc3ccccc3c4=O)C2(C#N)C#N)c2ccccc21 (stereo not given in full)            0.25
1  C[C@H]1COc2c(N3CCN(C)CC3)c(F)cc3c(=O)c(C(=O)O)cn1c23 [LEVOFLOXACIN ANHYDROUS]            0.25
2  CCN1C(=O)[C@@]2(CN(C)C3(c4cc(OC)ccc4-n4c3nc3ccccc3c4=O)C2(C#N)C#N)c2ccccc21 (stereo not given in full)            0.25
3  CCN1C(=O)[C@@]2(CN(C)C3(c4cc(Br)ccc4-n4c3nc3ccccc3c4=O)C2(C#N)C#N)c2ccccc21 (stereo not given in full)           0.125

API: the following record is the query input.
Input line: I'd like to know its MIC. The compound in question is C[C@@H](O)[C@H]1C(=O)N2C(C(=O)O)=C(S[C@@H]3CN[C@H](C(=O)N(C)C)C3)[C@H](C)[C@H]12
Output line: 4
